Data credit: PubChem BioAssay (NCATS)

- Tested on: HeLa
- measurementProtocol: Primary qHTS to identify gynecologic anti-cancer compounds using libraries of approved drugs and bioactive compounds (AID 1345084); also: nearly all actives have a fitted effect of over 55% in size
- conditionDescription: Gynecologic cancer cell panel viability, ATPlite luminescence, 48 h; series mostly up to 57.5 µM
Inconclusive results are not listed. Active and inactive are the calls of the source. Calls follow the shape of the dose curve; as a rule, active = well fitted cell-killing curve with a large enough effect; inconclusive = small, poorly fitted or top-dose-only effect, or effect the other way; inactive = flat fitted curve, though single readings scatter.

# molecule, outcome
rows = [
    ("CC1=C(C)C(=O)C(C(CCCCCC(=O)O)c2ccccc2)=C(C)C1=O (stereo not drawn)", "inactive"),
    ("CCC1=C(C)CN(C(=O)NCCc2ccc(S(=O)(=O)NC(=O)NC3CCC(C)CC3)cc2)C1=O (stereo not drawn)", "inactive"),
    ("Clc1ccc(C(Cn2ccnc2)OCc2ccc(Sc3ccccc3)cc2)c(Cl)c1 (stereo not drawn)", "inactive"),
]
